Assay: NCI Yeast Anticancer Drug Screen. Data for the bub3 strain (AID 167)
Details: S. cerevisiae bub3 mutant strain, at 50.0 µM, stronger effect = higher value
The panel holds about 79,000 compounds, 15% with a hit somewhere; the sample as a whole holds those more often.

[
  {
    "molecule": "CCOC(=O)CC1=Nc2ccccc2SC1",
    "resultUnits": "%",
    "growth inhibition": -22.6
  },
  {
    "molecule": "COc1ccc(-c2nnc3cc(C)n4nnnc4n23)cc1OC",
    "resultUnits": "%",
    "growth inhibition": 11.6
  },
  {
    "molecule": "COC(=O)C1CCC(=O)N1CN(C(C)=O)c1ccccc1 (centres undefined)",
    "resultUnits": "%",
    "growth inhibition": -5.8
  },
  {
    "molecule": "CC(O)C1(O)C(O)CC(OC2c3cc4c(c(O)c3[C@@H]3C[C@@]2(C)OC32C=c3cc[nH]c3=N2)C(=O)c2cccc(O)c2C4=O)OC1C (some centres undefined)",
    "resultUnits": "%",
    "growth inhibition": 52
  },
  {
    "molecule": "COC(=O)c1cc([O-])c2sc(C)c(C)[n+]2n1",
    "resultUnits": "%",
    "growth inhibition": -4.05
  },
  {
    "molecule": "COC1(OC)C[C@H](C)[C@@]23O[C@]24c2cc(O)c5c(c2N[C@H]3C#C/C=C\\C#C[C@]14O)C(=O)c1ccccc1C5=O",
    "resultUnits": "%",
    "growth inhibition": 89.3
  },
  {
    "molecule": "CN(C)c1ccc(C(=O)CCCN2CCC(O)(c3ccc(Cl)cc3)CC2)cc1",
    "resultUnits": "%",
    "growth inhibition": 18.1
  },
  {
    "molecule": "c1ccc(C2(c3ccccc3)Oc3ccccc3O2)cc1",
    "resultUnits": "%",
    "growth inhibition": -6.4
  },
  {
    "molecule": "Cc1nc2ccccc2c(=O)n1/N=C\\c1ccc2c(c1)CCC2",
    "resultUnits": "%",
    "growth inhibition": 23
  },
  {
    "molecule": "CC1(C)N=C(/C(Cl)=[N+](/[O-])C(=O)c2ccc(Cl)cc2)C(C)(C)N1O",
    "resultUnits": "%",
    "growth inhibition": -38.6
  },
  {
    "molecule": "CC1=CNNc2ccccc21",
    "resultUnits": "%",
    "growth inhibition": -14.4
  },
  {
    "molecule": "CCOC1(c2ccccc2)c2ccccc2C(C)(C)c2ccccc21",
    "resultUnits": "%",
    "growth inhibition": 14.9
  },
  {
    "molecule": "COc1cc(C(C)O)c[n+](CCC2CNc3ccccc32)c1 (centres undefined)",
    "resultUnits": "%",
    "growth inhibition": 6.45
  },
  {
    "molecule": "C/C(=N/NC(=S)N1CCCCCC1)c1ccccc1O",
    "resultUnits": "%",
    "growth inhibition": -12.8
  },
  {
    "molecule": "S=C1CC(c2ccccc2)Sc2cc(Cl)ccc2N1 (centres undefined)",
    "resultUnits": "%",
    "growth inhibition": -2.45
  },
  {
    "molecule": "COc1ccc(CC(=O)O)cc1OC",
    "resultUnits": "%",
    "growth inhibition": -5.95
  },
  {
    "molecule": "CC(=S)N=Cc1c(C)[nH]n(-c2ccccc2)c1=O",
    "resultUnits": "%",
    "growth inhibition": -57.7
  },
  {
    "molecule": "O=S(=O)(O)O.[NH-]CC1(C[NH-])CCCCC1.[Pt+2]",
    "resultUnits": "%",
    "growth inhibition": -28.6
  },
  {
    "molecule": "C(=N\\OCc1ccccc1)/c1ncccc1C1OCCO1",
    "resultUnits": "%",
    "growth inhibition": -5.8
  },
  {
    "molecule": "COC(=O)C1CC2(C(=O)OC)CC(C(=O)OC)(CC(C(=O)OC)C2=O)C1=O (centres undefined)",
    "resultUnits": "%",
    "growth inhibition": 18.5
  },
  {
    "molecule": "CC(=O)OC1C(=O)OC(=O)C1OC(C)=O (centres undefined)",
    "resultUnits": "%",
    "growth inhibition": 6.05
  },
  {
    "molecule": "CCN(CC)C1C(=O)NC1C#Cc1ccccc1 (centres undefined)",
    "resultUnits": "%",
    "growth inhibition": 7.6
  },
  {
    "molecule": "C[N+]1(C)CCCC(CN2c3ccccc3Sc3ccccc32)C1 (centres undefined)",
    "resultUnits": "%",
    "growth inhibition": 5.9
  },
  {
    "molecule": "CC(=O)Nc1ccc(N(C)C)cc1Cl",
    "resultUnits": "%",
    "growth inhibition": -1.8
  }
]

----------
Test: NCI Yeast Anticancer Drug Screen. Data for the sgs1 mgt1 strain (AID 161);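 note: 0% = growth of cultures given vehicle only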
Conditions: S. cerevisiae sgs1 mgt1 strain, at 50.0 µM, stronger effect = higher value
Procedure: Growth inhibition of yeast strains with defined genetic alterations is measured as a screen for potential anti-cancer activity. Selected strains with alterations in DNA damage repair or cell cycle control were exposed to compounds and growth inhibition was measured relative to vehicle treated controls. The strain used in this assay is sgs1 mgt1
Compounds without any hit were thinned out: in the full panel of roughly 79,000, 15% have a hit.
// reported growth inhibition per item
measurementKind: growth inhibition (%)

[
  {
    "compound": "COc1ccc2c(c1)CCC(c1nc3ccc(C)cc3[nH]c1=O)C2=O (stereo unspecified)",
    "resultUnits": "%",
    "result": 7.95
  },
  {
    "compound": "CCCCCCN(CCCCCC)CC(O)c1c(Cl)ccc2ccccc12 (stereo unspecified)",
    "resultUnits": "%",
    "result": 99.3
  },
  {
    "compound": "COC(=O)C1=C(C)N(NC(N)=O)C(C)(O)C12CCOC2=O (stereo unspecified)",
    "resultUnits": "%",
    "result": 2.15
  },
  {
    "compound": "C=CCc1ccc(OC(=O)Nc2cccc(OC)c2)c(OC)c1",
    "resultUnits": "%",
    "result": 73.9
  },
  {
    "compound": "CC1CCc2c(O)ccc(O)c21 (stereo unspecified)",
    "resultUnits": "%",
    "result": 2.5
  },
  {
    "compound": "CC(=O)Nc1ccc2c(c1)C(=O)c1ccccc1-2",
    "resultUnits": "%",
    "result": 30.2
  },
  {
    "compound": "[N-]=[N+]=CC(=O)C(CN)(Cc1ccccc1)c1ccc(Cl)cc1 (stereo unspecified)",
    "resultUnits": "%",
    "result": 9.1
  },
  {
    "compound": "COc1nc2c(c(O)c(C)c(=O)n2OC2OC(COC(C)=O)C(OC(C)=O)C(OC(C)=O)C2OC(C)=O)c(=O)n1C (stereo unspecified)",
    "resultUnits": "%",
    "result": 7.95
  },
  {
    "compound": "O=[N+]([O-])c1ccccc1N/N=C/c1ccccc1",
    "resultUnits": "%",
    "result": 2.6
  },
  {
    "compound": "C/C(=N\\NC(=O)c1ccccc1O)c1cccc(/C(C)=N/NC(=O)c2ccccc2O)n1.O=S(=O)([O-])[O-].[Fe+2]",
    "resultUnits": "%",
    "result": 39.5
  },
  {
    "compound": "C1CCC(c2nn[nH]n2)CC1",
    "resultUnits": "%",
    "result": 3.25
  }
]

----------
Assay: NCI Yeast Anticancer Drug Screen. Data for the sgs1 mgt1 strain (AID 161);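 note: 0% = growth of cultures given vehicle only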
Settings: S. cerevisiae sgs1 mgt1 strain, at 50.0 µM, stronger effect = higher value
The panel holds about 79,000 compounds, 15% with a hit somewhere; the sample as a whole holds those more often.
Mark 1 for reported growth inhibition of -20% or greater; mark -1 for anything smaller.

[
  {
    "molecule": "CC(=O)NNc1nc(C)c(C(=O)NNC(=O)C(=O)Nc2c(Cl)cc([N+](=O)[O-])cc2Cl)s1",
    "assignedClass": 1
  },
  {
    "molecule": "O=C1c2ccccc2C(=O)N1CC(O)COCc1ccccc1 (stereo not given)",
    "assignedClass": -1
  },
  {
    "molecule": "COc1cc(C2=C3C(=O)OCC3Cc3ccccc32)ccc1OCc1ccccc1 (stereo not given)",
    "assignedClass": 1
  },
  {
    "molecule": "Cc1cn(C2CC(N=[N+]=[N-])C(CO)O2)c(=O)[nH]c1=O (stereo not given)",
    "assignedClass": -1
  }
]

----------
Assay: NCI Yeast Anticancer Drug Screen. Data for the mlh1 rad18 strain (AID 175)
Conditions: S. cerevisiae mlh1 rad18 strain growth inhibition; at 50.0 µM; stronger effect = higher value
This is part of a sample that, as a whole, favours compounds with a hit. Of some 79,000 tested, about 15% had one in any assay.
Mark satisfied for reported growth inhibition of 10% or greater; mark not satisfied for anything smaller.

[
  {
    "molecule": "COCn1cnc2c(=O)n(-c3ccc(OC)cc3)c(=S)n(-c3ccc(OC)cc3)c21",
    "assignedClass": "not satisfied"
  },
  {
    "molecule": "CCOC(=O)NN(C(=O)OCC)c1c(C)[nH]c2ccccc12",
    "assignedClass": "satisfied"
  },
  {
    "molecule": "CCC1OC(=O)CC(O)C(C)C(OC2OC(C)C(O)C(N(C)C)C2O)C(CC=O)CC(C)C(=O)/C=C/C2(C)OC2C1C (centres undefined)",
    "assignedClass": "not satisfied"
  },
  {
    "molecule": "O=C(c1ccccc1)c1ccccc1NCC(O)COc1cccc2ccccc12 (centres undefined)",
    "assignedClass": "not satisfied"
  },
  {
    "molecule": "COc1ccc(/C=N/Nc2nc(C)c(C)s2)cc1",
    "assignedClass": "satisfied"
  },
  {
    "molecule": "Cc1ccccc1/C=C/C(=O)c1ccccc1",
    "assignedClass": "satisfied"
  },
  {
    "molecule": "O=C(O)CCSCc1ccc(I)cc1",
    "assignedClass": "satisfied"
  },
  {
    "molecule": "N=c1c(C(=O)O)cccn1O",
    "assignedClass": "not satisfied"
  },
  {
    "molecule": "CCOC(=O)/C=C(\\N)c1ccccc1",
    "assignedClass": "not satisfied"
  },
  {
    "molecule": "CC(C)(O)C1CCC/C1=N/NC(N)=O (centres undefined)",
    "assignedClass": "not satisfied"
  },
  {
    "molecule": "c1ccc(C2=Nc3ccccc3C(c3ccccc3)=Nc3ccccc32)cc1",
    "assignedClass": "not satisfied"
  },
  {
    "molecule": "CCCCCc1c(C)[nH]n(C(N)=NCCSCc2nc[nH]c2C)c1=O",
    "assignedClass": "satisfied"
  },
  {
    "molecule": "c1ccc2c(CN3CCCCC3)cccc2c1",
    "assignedClass": "not satisfied"
  },
  {
    "molecule": "C[N+]1(C)CC2CCC1C2 (centres undefined)",
    "assignedClass": "not satisfied"
  },
  {
    "molecule": "C=C1C(c2ccccc2)C(c2ccccc2)=C(C)C(c2ccccc2)=CN1C(=O)c1ccccc1 (centres undefined)",
    "assignedClass": "satisfied"
  },
  {
    "molecule": "COC(=O)C1(O)CC(=O)CCC1c1ccc(OC)cc1 (centres undefined)",
    "assignedClass": "not satisfied"
  },
  {
    "molecule": "c1ccc(CNCCNCc2ccccn2)nc1",
    "assignedClass": "satisfied"
  },
  {
    "molecule": "O=C(Cc1ccccc1)NC(CSSCC(NC(=O)Cc1ccccc1)C(=O)O)C(=O)O (centres undefined)",
    "assignedClass": "satisfied"
  },
  {
    "molecule": "CN1c2ccccc2N(C(=O)c2ccccc2)C(CC(=O)O)c2cccn21 (centres undefined)",
    "assignedClass": "not satisfied"
  },
  {
    "molecule": "Cc1ccc(S(=O)(=O)NC(=O)N(Cc2ccccc2)C(C)(C)C)cc1",
    "assignedClass": "satisfied"
  },
  {
    "molecule": "COc1cc2c3cc1Oc1c(O)c(OC)cc4c1C(Cc1ccc(O)c(c1)Oc1ccc(cc1)CC3N(C)CC2)N(C)CC4 (centres undefined)",
    "assignedClass": "not satisfied"
  },
  {
    "molecule": "COc1cccc(/C=C/c2cc3c(cc2Br)OCO3)c1",
    "assignedClass": "not satisfied"
  },
  {
    "molecule": "COc1ccccc1NC(=O)C1=C(C)NC(C)=C(C(=O)Nc2ccccc2OC)C1c1ccco1",
    "assignedClass": "not satisfied"
  }
]
